Attribution: patent US4806547A

For each of the molecules below, state its pKi.
# TARGET_OR_SYSTEM: μ opioid receptor (μ sites) (Cavia porcellus, UniProt A0ACM8Q262)
# Sequence (A0ACM8Q262 1-400): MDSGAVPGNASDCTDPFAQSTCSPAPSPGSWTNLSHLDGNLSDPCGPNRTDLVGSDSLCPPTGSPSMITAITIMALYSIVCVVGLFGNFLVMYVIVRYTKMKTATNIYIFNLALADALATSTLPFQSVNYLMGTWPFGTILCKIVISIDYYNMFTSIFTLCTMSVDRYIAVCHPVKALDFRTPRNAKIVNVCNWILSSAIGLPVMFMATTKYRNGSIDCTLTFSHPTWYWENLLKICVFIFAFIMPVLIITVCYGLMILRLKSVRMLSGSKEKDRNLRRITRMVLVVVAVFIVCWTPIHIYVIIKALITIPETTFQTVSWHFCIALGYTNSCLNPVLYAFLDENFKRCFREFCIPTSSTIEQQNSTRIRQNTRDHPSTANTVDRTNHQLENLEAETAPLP
# TEST_DESCRIPTION: Receptor binding to μ sites (3H-DAGO)
# STATED_CONDITIONS: read-out: RECEPTOR BINDING Ki μ, guinea pig brain homogenate, 25° C., 40 min
Counter-ions that a name gives are not always drawn.
API: returns pKi as number; meaning -log10 of concentration in mol/L.

Form entry - test system: μ opioid receptor (μ sites) (Cavia porcellus, UniProt A0ACM8Q262); read-out: pKi; molecule: O=C(Cc1ccc([N+](=O)[O-])cc1)N1CCc2ccccc2C1CN1CCCC1 (stereo not shown) [Example 11, hydrochloride hemihydrate]
7.21

Form entry - test system: μ opioid receptor (μ sites) (Cavia porcellus, UniProt A0ACM8Q262); read-out: pKi; molecule: CN(C)CC1c2ccccc2CCN1C(=O)Cc1ccc(Cl)c(Cl)c1 (single isomer, unassigned) [Example 3, hemihydrate]
6.54

Form entry - test system: μ opioid receptor (μ sites) (Cavia porcellus, UniProt A0ACM8Q262); read-out: pKi; molecule: CN(C)CC1c2ccccc2CCN1C(=O)Cc1ccc(Cl)c(Cl)c1 (stereo not shown) [Example 1, hydrochloride]
6.38

Form entry - test system: μ opioid receptor (μ sites) (Cavia porcellus, UniProt A0ACM8Q262); read-out: pKi; molecule: O=C(Cc1ccc(Br)cc1)N1CCc2ccccc2C1CN1CCCC1 (stereo not shown) [Example 10, hydrochloride]
7.30

----------
# TARGET_OR_SYSTEM: K (Kappa) opioid receptor (K sites) (Cavia porcellus, UniProt P41144)
# Construct: fresh guinea pig brain homogenate; from tissue; host or cells: guinea pig whole brain without cerebellum, homogenate
# Sequence (P41144 whole entry): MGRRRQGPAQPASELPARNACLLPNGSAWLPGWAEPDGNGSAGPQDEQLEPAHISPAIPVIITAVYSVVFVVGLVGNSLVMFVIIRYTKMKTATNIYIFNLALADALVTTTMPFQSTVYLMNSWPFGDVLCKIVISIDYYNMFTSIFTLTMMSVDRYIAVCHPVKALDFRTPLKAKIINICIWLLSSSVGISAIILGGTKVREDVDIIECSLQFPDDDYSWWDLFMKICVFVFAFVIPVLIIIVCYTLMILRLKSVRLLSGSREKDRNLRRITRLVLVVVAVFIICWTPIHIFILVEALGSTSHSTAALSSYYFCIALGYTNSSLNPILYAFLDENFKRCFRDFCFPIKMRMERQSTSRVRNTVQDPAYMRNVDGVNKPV
# TEST_DESCRIPTION: Receptor binding to K sites (tritiated Ethylketocyclazocine)
# Set-up: species or system guinea pig
Counter-ions that a name gives are not always drawn.
For each of the compounds below, state its Ki.
Quote the value and follow it with the unit of measurement.

Entry under review: CN(C)CC1c2ccccc2CCN1C(=O)Cc1ccc(Br)cc1 (stereo not drawn) [Example 4, hydrochloride] . Reported Ki?
3.19 nM

Entry under review: CN(C)CC1c2ccccc2CCN1C(=O)Cc1ccc(Cl)c(Cl)c1 (single isomer, unassigned) [Example 3, hemihydrate] . Reported Ki?
2.37 nM

Entry under review: O=C(Cc1ccc(Br)cc1)N1CCc2ccccc2C1CN1CCCC1 (stereo not drawn) [Example 10, hydrochloride] . Reported Ki?
0.57 nM

----------
# TARGET_OR_SYSTEM: K (Kappa) opioid receptor (K sites) (Cavia porcellus)
# Construct: fresh guinea pig brain homogenate; from tissue; host or cells: guinea pig whole brain without cerebellum, homogenate
# TEST_DESCRIPTION: Receptor binding to K sites (tritiated Ethylketocyclazocine)
# Set-up: species or system guinea pig
# STATED_CONDITIONS: read-out: RECEPTOR BINDING Ki K; guinea pig brain homogenate, tritiated Ethylketocyclazocine with 100 nM DADLE and 100 nM DAGO, 25° C., 40 min
Structures can show the parent of a compound that is named as a salt.
For each of the compounds below, state its pKi.
API: returns pKi as number; meaning -log10 of concentration in mol/L.

Form entry - test system: K (Kappa) opioid receptor (K sites) (Cavia porcellus); read-out: pKi; compound: O=C(Cc1ccccc1[N+](=O)[O-])N1CCc2ccccc2C1CN1CCCC1 (stereo not shown) [Example 13, hydrochloride hemihydrate]
8.10

Form entry - test system: K (Kappa) opioid receptor (K sites) (Cavia porcellus); read-out: pKi; compound: CN(C)CC1c2ccccc2CCN1C(=O)Cc1ccccc1[N+](=O)[O-] (stereo not shown) [Example 6, hydrochloride hemihydrate]
7.51

Form entry - test system: K (Kappa) opioid receptor (K sites) (Cavia porcellus); read-out: pKi; compound: O=C(Cc1ccc([N+](=O)[O-])cc1)N1CCc2ccccc2C1CN1CCCC1 (stereo not shown) [Example 11, hydrochloride hemihydrate]
9.19

Form entry - test system: K (Kappa) opioid receptor (K sites) (Cavia porcellus); read-out: pKi; compound: CN(C)CC1c2ccccc2CCN1C(=O)Cc1ccc([N+](=O)[O-])cc1 (stereo not shown) [Example 5, hydrochloride hemihydrate]
8.24
